METHOD: Human HepG2 cell viability assay in 384 well format
Assay type: toxicity, cell-based
Parameters: dose 125 nL, time 70.5 hour; concentration not given beside the values
RUN_CONDITIONS: HepG2 cells, read-out: Inhibition
Entries annotated with measured cytotoxicity at 70.5 h

COMPOUND: NC(=O)C1CCN(C(=O)NC2CCc3cc(F)ccc32)CC1 (centres undefined)
cytotoxicity at 70.5 h (%): 2.63

COMPOUND: CC(C)Nc1nc(O)cc(C2CC(=O)N(Cc3ccccc3)C2)n1 (centres undefined)
cytotoxicity at 70.5 h (%): -7.01

COMPOUND: Cc1noc([C@H]2C[C@H]3CN(C(=O)Cc4ccsc4)CC[C@H]3O2)n1
cytotoxicity at 70.5 h (%): -9.17

COMPOUND: Cc1ccc(=O)n(Cc2nc(C(C)OCC(C)C)no2)n1 (centres undefined)
cytotoxicity at 70.5 h (%): 3.26
